target: mPAD4 (Mus musculus, UniProt Q9Z183); experiment: mPAD4 RFMS PAD4 inhibition assay; assay type: biochemical; settings: mPAD4, RFMS readout; pIC50=−log(IC50); read-out: mPAD4 RFMS pIC50 (converted);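 further: grade E means pIC50 at most 4 and F means pIC50 4.0 to 5.0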
Sequence (Q9Z183 whole entry): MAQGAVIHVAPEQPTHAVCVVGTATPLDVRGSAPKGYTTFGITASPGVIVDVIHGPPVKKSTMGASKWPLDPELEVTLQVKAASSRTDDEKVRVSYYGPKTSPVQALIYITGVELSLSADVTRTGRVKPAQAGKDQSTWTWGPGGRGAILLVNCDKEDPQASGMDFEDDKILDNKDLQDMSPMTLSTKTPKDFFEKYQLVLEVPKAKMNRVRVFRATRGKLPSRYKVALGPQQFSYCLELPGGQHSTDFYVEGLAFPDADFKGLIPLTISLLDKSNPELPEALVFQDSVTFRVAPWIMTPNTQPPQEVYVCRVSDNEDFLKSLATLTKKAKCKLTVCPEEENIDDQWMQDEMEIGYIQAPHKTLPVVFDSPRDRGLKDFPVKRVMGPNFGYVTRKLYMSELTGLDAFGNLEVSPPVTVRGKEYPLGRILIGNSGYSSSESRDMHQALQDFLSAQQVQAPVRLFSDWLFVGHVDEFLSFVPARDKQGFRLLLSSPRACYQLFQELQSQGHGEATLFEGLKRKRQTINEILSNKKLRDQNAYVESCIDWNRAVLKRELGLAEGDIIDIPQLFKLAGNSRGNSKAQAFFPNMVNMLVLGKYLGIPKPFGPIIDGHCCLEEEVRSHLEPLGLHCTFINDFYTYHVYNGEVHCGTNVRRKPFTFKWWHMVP
Where a name gives a salt, the structure may show the parent alone.
parameter: IC50

// below: answered compounds
| compound | endpoint_result |
| --- | --- |
| COc1cc(C(=O)N2C[C@@H](N)CC[C@H]2C)cc2nc(-c3cc4cccnc4n3CC3CC3)n(C)c12 | < 1 µM |
| CCn1c(-c2nc3cc(C(=O)N4CCC[C@@H](N)C4)cc(OC)c3n2C[C@H]2C[C@@](C)(OC)C2)cc2ccc(OC)nc21 | < 1 µM |
| CCCn1c(-c2nc3cc(C(=O)N4CCC[C@@H](N)C4)cc(OC)c3n2C)cc2cccnc21 | < 1 µM |
| COCCn1c(-c2cc3cccnc3n2CC2CC2)nc2cc(C(=O)N3CCC[C@@H](N)C3)cc(OC)c21 | < 1 µM |

Task: Item under review: COC1CCN(C(=O)c2ccc3c(c2)nc(-c2cc4cccnc4n2CC2CC2)n3C)CC1N (racemic) . Reported IC50?
Output: 1 to 10 µM

Task: Item under review: `COc1cc(C(=O)N2C[C@H]3C[C@H](O)[C@@H]2[C@@H]3N)cc2nc(-c3cc4cccnc4n3CC3CC3)n(C)c12` . Reported IC50?
Output: 1 to 10 µM

Task: Item under review: `CC(=O)Nc1ccnc2c1cc(-c1nc3cc(C(=O)N4CCC[C@@H](N)C4)ccc3n1C)n2CC1CC1` . Reported IC50?
Output: 10 to 100 µM

Task: Item under review: `CCn1c(-c2nc3cc(C(=O)N4CCC[C@@H](N)C4)cc(OC)c3n2CCOC)cc2cccnc21` . Reported IC50?
Output: 1 to 10 µM

Task: Item under review: `COc1cc(C(=O)N2C[C@H]3CC[C@@H]2[C@@H]3N)cc2nc(-c3cc4cnc(C)nc4n3CC3CC3)n(C)c12` . Reported IC50?
Output: 1 to 10 µM

Task: Item under review: `Cn1c(-c2cc3cccnc3n2CC2CC2)nc2cc(C(=O)N3CCC[C@@H](N)C3)cc(CO)c21` . Reported IC50?
Output: 1 to 10 µM

Task: Item under review: COc1cc(C(=O)N2C[C@@H](N)C[C@H](O)C2)cc2nc(-c3cc4cccnc4n3CC3CC3)n(C)c12 (racemic) . Reported IC50?
Output: 1 to 10 µM

Task: Item under review: `COc1cc(C(=O)N2CC[C@H]3CCN[C@H]3C2)cc2nc(-c3cc4cncnc4n3CC3CC3)n(C)c12` . Reported IC50?
Output: 10 to 100 µM

Task: Item under review: `COc1cc(C(=O)N2CC3(CCCNC3)C2)cc2nc(-c3cc4cccnc4n3CC3CC3)n(C)c12` . Reported IC50?
Output: 1 to 10 µM

Task: Item under review: `COc1cc(C(=O)N2CCC[C@@H](N)C2)cc2nc(-c3cc4cccnc4n3CC3CC3)n(C[C@H]3C[C@@](C)(OC)C3)c12` . Reported IC50?
Output: < 1 µM

Task: Item under review: `Cn1c(-c2cc3cccnc3n2CC2CC2)nc2cc(C(=O)N3C[C@H]4CC[C@@H]3[C@@H]4N)c(F)cc21` . Reported IC50?
Output: 1 to 10 µM

Task: Item under review: COc1cc(C(=O)N2CC3CCC2C(N)C3)cc2nc(-c3cc4cccnc4n3CC3CC3)n(C)c12 (stereo not drawn) [Compound I-129] . Reported IC50?
Output: 1 to 10 µM

Task: Item under review: Cn1c(-c2cc3cccnc3n2CC2CC2)nc2cc(C(=O)N3CC[C@H]4CCN[C@H]4C3)cc(OC(F)F)c21 (single isomer, unassigned) [Compound I-24, hydrochloride] . Reported IC50?
Output: 10 to 100 µM

Task: Item under review: `COc1cc(C(=O)N2CCC[C@@H](N)C2)cc2nc(-c3cc4ccc(C(F)(F)F)nc4n3CC3CC3)n(C)c12` . Reported IC50?
Output: < 1 µM

Task: Item under review: `COc1ccc2cc(-c3nc4cc(C(=O)N5C[C@H]6CC[C@@H]5[C@@H]6N)cc(OC)c4n3C)n(CC3CC3)c2n1` . Reported IC50?
Output: < 1 µM

Task: Item under review: `CCn1c(-c2nc3cc(C(=O)N4CCC[C@@H](N)C4)cc(OC)c3n2C[C@H]2C[C@@](C)(OC)C2)cc2cccnc21` . Reported IC50?
Output: < 1 µM

Task: Item under review: `COc1cc(C(=O)N2CC[C@@H]3OCCN[C@@H]3C2)cc2nc(-c3cc4cccnc4n3CC3CC3)n(C)c12` . Reported IC50?
Output: 1 to 10 µM

Task: Item under review: COc1cc(C(=O)N2CC(N)CC(C#N)C2)cc2nc(-c3cc4cccnc4n3CC3CC3)n(C)c12 (racemic) . Reported IC50?
Output: 10 to 100 µM

Task: Item under review: `Cn1c(-c2cc3cccnc3n2CC2CC2)nc2cc(C(=O)N3CC[C@@H]4CCN[C@@H]4C3)ccc21` . Reported IC50?
Output: 10 to 100 µM

Source listed as patent US9963448B2.
